Test system: xanthine oxidase found in milk (Bos taurus, UniProt P80457)
Construct: purchased
Sequence (P80457 whole entry): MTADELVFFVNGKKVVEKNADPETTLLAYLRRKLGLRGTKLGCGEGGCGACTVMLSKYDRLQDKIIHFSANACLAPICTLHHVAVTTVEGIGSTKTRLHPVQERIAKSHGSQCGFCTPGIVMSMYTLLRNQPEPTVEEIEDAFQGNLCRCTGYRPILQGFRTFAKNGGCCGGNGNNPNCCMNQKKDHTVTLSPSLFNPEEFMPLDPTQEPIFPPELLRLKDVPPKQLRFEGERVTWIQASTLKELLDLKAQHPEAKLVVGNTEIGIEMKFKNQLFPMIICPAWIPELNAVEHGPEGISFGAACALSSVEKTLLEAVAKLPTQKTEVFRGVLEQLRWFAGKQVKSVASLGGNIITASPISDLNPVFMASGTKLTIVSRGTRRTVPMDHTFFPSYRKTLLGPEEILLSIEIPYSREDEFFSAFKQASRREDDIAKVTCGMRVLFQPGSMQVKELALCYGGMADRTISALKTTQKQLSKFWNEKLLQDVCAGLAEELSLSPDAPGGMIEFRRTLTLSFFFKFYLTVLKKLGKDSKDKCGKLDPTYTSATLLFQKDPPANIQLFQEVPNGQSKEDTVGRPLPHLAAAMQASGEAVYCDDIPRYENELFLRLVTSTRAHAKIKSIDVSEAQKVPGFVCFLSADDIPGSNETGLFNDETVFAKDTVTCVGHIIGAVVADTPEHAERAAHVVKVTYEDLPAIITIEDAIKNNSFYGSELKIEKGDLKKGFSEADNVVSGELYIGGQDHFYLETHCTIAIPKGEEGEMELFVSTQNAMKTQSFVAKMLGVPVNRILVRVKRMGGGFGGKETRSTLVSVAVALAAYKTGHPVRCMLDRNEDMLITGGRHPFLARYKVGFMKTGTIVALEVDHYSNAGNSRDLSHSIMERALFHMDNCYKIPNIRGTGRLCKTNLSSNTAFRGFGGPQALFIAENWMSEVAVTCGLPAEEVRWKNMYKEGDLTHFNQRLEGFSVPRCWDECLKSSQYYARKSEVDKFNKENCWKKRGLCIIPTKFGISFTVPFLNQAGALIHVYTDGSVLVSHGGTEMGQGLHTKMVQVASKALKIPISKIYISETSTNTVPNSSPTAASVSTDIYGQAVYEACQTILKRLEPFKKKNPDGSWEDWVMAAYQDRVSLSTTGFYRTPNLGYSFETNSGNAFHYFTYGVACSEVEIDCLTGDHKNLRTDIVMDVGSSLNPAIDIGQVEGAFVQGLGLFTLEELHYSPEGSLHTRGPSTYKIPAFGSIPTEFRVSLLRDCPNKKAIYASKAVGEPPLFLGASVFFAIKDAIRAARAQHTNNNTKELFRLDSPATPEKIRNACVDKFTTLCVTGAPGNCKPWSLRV
Assay protocol: Inhibition of the action of xanthine oxidase in vitro (U.V. spectrophotometry, formation of uric acid from hypoxanthine)
Format: biochemical
Assay setup: compound at 10^-5 M; hypoxanthine substrate, pH 7.4, 37° C.
Recorded inhibition at 10 µM for the following compounds
Reported metric: inhibition at 10 µM (%)

{"Line notation": "Cc1cc2ccccn2c1C(=O)c1cc(Br)c(O)c(Br)c1", "Value units": "%", "Value observed": 91}
{"Line notation": "COc1ccc(-c2c(Br)c3ccccn3c2C(=O)c2ccc(O)c(Br)c2)cc1", "Value units": "%", "Value observed": 80}
{"Line notation": "CCc1cc2ccccn2c1C(=O)c1cc(Br)c(O)c(Br)c1", "Value units": "%", "Value observed": 98}
{"Line notation": "CCc1cc2ccccn2c1C(=O)c1cc(Cl)c(O)c(Cl)c1", "Value units": "%", "Value observed": 98}
